# assayed_system: hMPV B2 F trimer (heated) (human metapneumovirus)
# procedure_text: ELISA on coated recombinant protein, OD 405 nm
Labelling: EC50 reported below 0.7 mg/L becomes Yes; at or above becomes No.

MPV454 (antibody, V domains shown) VH: EVQLVESGGGLVKPGGSLRLSCSTSGFVFSSYAMHWVRQAPGKGLEHVSAISSTGDNTHYADSVKGRFTISRDNSRGRLYLQMTSVRPEDAALYYCVKDLYSGRFYYFLDDWGQGTRIIVSS VL: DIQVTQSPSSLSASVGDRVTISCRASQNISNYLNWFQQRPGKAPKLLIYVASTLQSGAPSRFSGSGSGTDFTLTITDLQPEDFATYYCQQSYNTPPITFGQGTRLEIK
Yes
MPV489 (antibody, V domains shown) VH: EVQLLESGGGLVQPGGSLRLSCAASKFTFNNYEMNWLRQAPGKGLEWVSSISSSGDTIHNADSVKGRFIISRDNAKNSLHLQMNGLRAEDTAVYYCARAGSGWAYDAFDIWGLGTMVTVSS VL: LSASVGDRVTITCRASQSISSFLNWYQQKPGKAPKLLMYAASSLPVGVPSRFSGSGSGPEYTLTISNLQPEDFATYYCQQGYSSPPTFGGGTRLEVK
No
MPV477 (antibody, V domains shown) VH: EVQLVQSGAEVKKPGASVEVSCKTSGYTFTDYYLHWVRQAPGQGLEWMGWINPRSGGTKYGQKFQGRVTMTRDTSISTAYMDLRGLRSDDTAVYYCARAPLLTVYAVAHRSGENRFDPWGQGTVTVSS VL: QPPSLSGAPGQTVTISCTGSGSNIGAGYDVNWYQCLPGTAPKLLMFDNSNRPSGVPDRFSGSRSGASASLAITGLQAEDEADYYCQSYDSGLSGWVFGGGTKLTVL
Yes
MPV456 (antibody, V domains shown) VH: QVQLQESGPGVVKPSGTLSLTCGVSGGSISSSYWWSWVRQPPGKGLEWIGEIYHSGSTNYNPSLKRRVTISVDKSKNQFSLKVTSVTAADTAVYYCARGPIQYYDILTEERVGYCDYWGQGTLVTVSS VL: TLSASVGDRVTITCRASQSISSWLAWFQQKPGKAPKLLIYKTSSLESGVPSRFSGSGSGTEFTLTISSLQPDDFATYYCQEYNSYSRTFGQGTKVEIK
No

State whether 0.7 mg/L exceeds EC50 recorded for MPV467 (antibody, V domains shown) VH: EVQLVESGGGVVRPGTSLRVSCAAFDFNFRDYGMHWVRQAPGKGLEWVAGIWYDGSNKDYADSVKGRFTISRDNSQNTLYLQMNSLRVEDTAVYYCARDPRTHREGALSHFDSWGQGTLVTVSS VL: PNELTQDPAVSVALGQTVRITCQGDSLRNYFAGWYQQKPGQAPLLVLYGENIRPSGIPDRFSGSSSGNTVSLTITGAQAEDEADYYCNSRDNSGNHWVFGGGTRLTVL .
Yes
